# TARGET_ENTITY: T1, P10-AA
# T1 chain: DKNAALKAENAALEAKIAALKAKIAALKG
# METHOD_SUMMARY: two-hybrid library CCmax;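 note: natural log of median RNA to DNA barcode read ratio; higher means stronger binding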
# SETUP_CONDITIONS: mean of both orientations
# Criterion met = interaction score below -1 (exclusive); Criterion not met = interaction score at/above -1

Would you please look over these solved cases?
| BINDER | CLASSIFICATION |
| --- | --- |
| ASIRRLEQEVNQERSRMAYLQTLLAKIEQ [4H_BCR] | Criterion met |
| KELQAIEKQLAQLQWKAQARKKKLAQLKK [4H_APH] | Criterion met |
| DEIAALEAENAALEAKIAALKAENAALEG [4H171-AA] | Criterion met |

Find out if reported interaction score for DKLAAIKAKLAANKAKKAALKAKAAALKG [AP2-AA] is less than -1
Criterion met

Find out if reported interaction score for DKNAALKAKIAALKAENAALEAKIAALKG [O6-AA] is less than -1
Criterion met

Find out if reported interaction score for DENAALEAEIAALEAENAALEAKIAALKG [O14-AA] is less than -1
Criterion not met

Find out if reported interaction score for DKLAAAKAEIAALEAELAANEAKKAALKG [AP8-AA] is less than -1
Criterion not met

Find out if reported interaction score for DEIAALEAKIAALKAENAALEAENAALEG [O3-AA] is less than -1
Criterion met

Find out if reported interaction score for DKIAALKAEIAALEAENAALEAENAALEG [O11-AA] is less than -1
Criterion not met

Find out if reported interaction score for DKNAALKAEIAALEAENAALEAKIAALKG [4H3606-AA] is less than -1
Criterion not met

Just for reference, paper PMC10397247 is where these values come from.
